# Test system: CAKI-1
# test: NCI tumour cell line growth inhibition, 48 h
Active and inactive are the calls of the source. No stated cut-off is given here; in the data, active = GI50 up to about 1.1 µM and inactive = higher.
attribute_measured: GI50

Query: Value lookup for GI50; key = COC(=O)/C(C#N)=C1\CCC(O)N1C (centres undefined)
Result: > 100 µM (inactive)

Query: Value lookup for GI50; key = `Nc1ccc(C(=O)O)c2[nH]c3ccccc3c(=O)c12`
Result: > 100 µM (inactive)

Query: Value lookup for GI50; key = CC1C/C(=C\c2ccc(O)c(O)c2)C(=O)/C(=C/c2ccc(O)c(O)c2)C1 (centres undefined)
Result: 5.74 µM (inactive)

###

# System: SF-268
# test: NCI tumour cell line growth inhibition, 48 h
Active and inactive are the calls of the source. No stated cut-off is given here; in the data, active = GI50 up to about 1.1 µM and inactive = higher.
attribute_measured: GI50

// solved cases for GI50 follow
[[record]]
molecule = "CCOC(=O)C1(C/C=C/CBr)Cc2ccccc2C1=O (stereo not drawn)"
attribute_measured = "GI50"
test_value = "2.91 µM (inactive)"

[[record]]
molecule = "CC(=O)OCC1OC(n2c3c(cc(C#N)c2=S)CCCCCC3)C(OC(C)=O)C(OC(C)=O)C1OC(C)=O (stereo not drawn)"
attribute_measured = "GI50"
test_value = "> 100 µM (inactive)"


Now examine the next entry.
Query: Value lookup for GI50; key = COc1nc(O)c(N)c(NC2OC(CO)C(O)C(O)C2O)n1 (stereo not drawn)
Result: > 100 µM (inactive)

###

# Test system: UO-31
# test: NCI tumour cell line growth inhibition, 48 h
Activity calls are given as the source filed them. No stated cut-off is given here; in the data, active = GI50 up to about 1.1 µM and inactive = higher.
Answer with one of the outcomes active, inactive

[[record]]
compound = "C=C1C(=O)O[C@@H]2/C=C(C)/C=C\\[C@@H]3O[C@@]3(C)C[C@@H](O)C12 (some centres undefined)"
group_label = "inactive"


Kindly review the next compound as well.
Query: Can you look up the reported call for `C=C[C@H]1CN2CCc3c([nH]c4c([C@@H]5CCCN5C)c(O)ccc34)[C@@H]2C[C@@H]1C[C@H]1c2[nH]c3ccccc3c2CCN1C` for me?
Result: active

###

# Tested on: HOP-92
# test: NCI tumour cell line growth inhibition, 48 h
The source made the active and inactive calls. Cut-off read from the data, not from the text of the source: active = GI50 up to about 1.1 µM and inactive = higher.
attribute_measured: GI50

// solved cases for GI50 follow
[[record]]
molecule = "CCN1C(=O)/C(=C2\\SC(c3ccccc3)(c3ccccc3)c3ccccc32)SC1=S"
tgt = "HOP-92"
test_value = "30.5 µM (inactive)"

[[record]]
molecule = "CCOC(=O)/C(=C/c1cccc(OC)c1)N(CC)CC"
tgt = "HOP-92"
test_value = "> 100 µM (inactive)"

[[record]]
molecule = "C=CC[C@H]1C[C@@]2(C)OC[C@H](C(C)C)N2C1=O"
tgt = "HOP-92"
test_value = "> 100 µM (inactive)"

[[record]]
molecule = "COc1ccc2c(c1)CCC(CN1CCN(CCOC(c3ccc(F)cc3)c3ccc(F)cc3)CC1)=C2"
tgt = "HOP-92"
test_value = "16.1 µM (inactive)"

[[record]]
molecule = "C=CC(Br)(CBr)CCC(Cl)C(C)C (stereo unspecified)"
tgt = "HOP-92"
test_value = "2.04 µM (inactive)"


Now examine the next entry.
Query: Value lookup for GI50; key = `O=C(NCCNCCNC(=O)c1cc(-c2ccccc2)nc2ccccc12)c1cc(-c2ccccc2)nc2ccccc12`
Result: 1.82 µM (inactive)

###

# Tested on: DLD-1
# test: NCI tumour cell line growth inhibition, 48 h
Calls of active or inactive are those of the source. Cut-off read from the data, not from the text of the source: active = GI50 up to about 1.1 µM and inactive = higher. Non-standard residues stand in square brackets, D forms with d. Residues, ends and D or L forms follow the SMILES beside them. ξ: configuration not given here. *: point of attachment. NMeF = CN[C@@H](Cc1ccccc1)C(=O)O; ξNMeV = CNC(C(=O)O)C(C)C; Boc = CC(C)(C)OC(=O)*; OBn = c1ccc(CO*)cc1
Reported GI50 by item:

// solved cases for GI50 follow
[[record]]
compound = "CC(C)C(C(=O)N1CCC[C@@H]1C(=O)OCc1ccccc1)N(C)C(=O)C(C(C)C)N(C)C(=O)[C@H](Cc1ccccc1)N(C)C(=O)[C@H](NC(=O)OC(C)(C)C)C(C)C (some centres undefined) (Boc-[dV][NMeF][ξNMeV][ξNMeV][dP]-OBn)"
attribute_measured = "GI50"
test_value = "> 100 µM (inactive)"

[[record]]
compound = "Cc1ccc2c(c1)C1(OC(=O)c3ccccc31)c1ccc(F)cc1O2 (centres undefined)"
attribute_measured = "GI50"
test_value = "61.8 µM (inactive)"

[[record]]
compound = "COC(=O)C1=C2CCC(=O)[C@@]2(C)C(OC(C)=O)C=CC1 (some centres undefined)"
attribute_measured = "GI50"
test_value = "41.6 µM (inactive)"


Now examine the next entry.
Query: Value lookup for GI50; key = CC1(C)c2ccccc2C(C)(C)C(C(=O)Nc2ccccc2)C1C(=O)O (centres undefined)
Result: > 100 µM (inactive)

###

# System: CCRF-CEM
# test: NCI tumour cell line growth inhibition, 48 h
Active and inactive are the calls of the source. No stated cut-off is given here; in the data, active = GI50 up to about 1.1 µM and inactive = higher.
attribute_measured: GI50

// solved cases for GI50 follow
[[record]]
compound = "N#CNC1=NC(CCCC(=O)Nc2cccc([N+](=O)[O-])c2)=C(c2nc3ccccc3[nH]2)C(N)N1 (stereo not given)"
test_value = "> 100 µM (inactive)"

[[record]]
compound = "Cc1ccc(C)c(NC(=O)CC/C(=N\\NC(=O)C(N)=O)C(C)C(=O)c2ccc(O)cc2)c1 (stereo not given)"
test_value = "> 100 µM (inactive)"

[[record]]
compound = "CN1CCCC(C(=O)OCC(=O)C2(O)CCC3C4CCC5=CC(=O)CCC5(C)C4C(O)CC32C)C1 (stereo not given)"
test_value = "4.9 µM (inactive)"

[[record]]
compound = "CC(=O)OC[C@]1(C(=O)C(O)c2ccoc2)[C@H](C)CC[C@@]23COC(=O)C2=CCC[C@@H]31 (stereo not given in full)"
test_value = "> 10 µM (inactive)"


Query: Value lookup for GI50; key = C=CC(Br)(CBr)CCC(Cl)C(C)C (stereo not given)
Result: 0.364 µM (active)

Query: Value lookup for GI50; key = `CC(=O)Nc1ccc(S(=O)(=O)NN(C)S(=O)(=O)c2ccc(C)cc2)cc1`
Result: > 100 µM (inactive)

###

# Tested on: RPMI-8226
# test: NCI tumour cell line growth inhibition, 48 h
Calls of active or inactive are those of the source. No stated cut-off is given here; in the data, active = GI50 up to about 1.1 µM and inactive = higher.
Answer with one of the outcomes true (active), false (inactive)

[[record]]
compound = "Cc1ccc(C(=O)N/N=C(\\N=N\\c2cccc([N+](=O)[O-])c2)c2ccc(N(CCC#N)CCC#N)cc2C)cc1"
tgt = "RPMI-8226"
group_label = "false"

[[record]]
compound = "O=C(Cn1cc(Br)c(=O)[nH]c1=O)c1ccc(-c2ccccc2)cc1"
tgt = "RPMI-8226"
group_label = "false"

[[record]]
compound = "Cn1cc(C(=O)c2nccc3c2cnc2ccccc23)ccc1=O"
tgt = "RPMI-8226"
group_label = "false"

[[record]]
compound = "COC(=O)CNC(=O)C(Cc1ccccc1)NC(=O)c1ccc(-c2ccc(Cl)cc2Cl)o1 (stereo not given)"
tgt = "RPMI-8226"
group_label = "false"

[[record]]
compound = "COC(=O)C(Cc1nc2ccccc2nc1C)/C(=N\\NC(N)=O)C(=O)Nc1cccc([N+](=O)[O-])c1 (stereo not given)"
tgt = "RPMI-8226"
group_label = "false"


Query: Can you look up the reported call for `CCC/C(Cl)=N/OC(=O)Nc1cccc(F)c1` for me?
Result: false

Query: Can you look up the reported call for `COc1ccc2cc(-c3ccc(OC)c(OC)c3)c(=O)oc2c1` for me?
Result: false

Query: Can you look up the reported call for C=CCCCCCC(O)C(O)C/C=C\C/C=C\CC (stereo not given) for me?
Result: false

Query: Can you look up the reported call for `Cc1ccc(N/C(SCc2ccccc2)=C(\C(Cl)=C(Cl)Cl)[N+](=O)[O-])c(C)c1` for me?
Result: false

Query: Can you look up the reported call for OCCN1CCN2C=C(C3CCCC4N(CCO)CCN34)CCC21 (stereo not given) for me?
Result: false

Query: Can you look up the reported call for `COC1=C(NC(C)=O)C(=O)c2nc3n(c2C1=O)CCC3` for me?
Result: false

Query: Can you look up the reported call for `CC(=O)c1sc2c(c1OC(=O)c1ccc(Cl)cc1Cl)c(=O)n(-c1ccccc1)c(=S)n2-c1ccccc1` for me?
Result: true

Query: Can you look up the reported call for `CN(C)NC1=NS(=O)(=O)c2cc3c(cc2S1)N(N(C)C)C(=O)c1cc2c(cc1N(N(C)C)C3=O)SC(NN(C)C)=NS2(=O)=O` for me?
Result: false

Query: Can you look up the reported call for `COc1ccc2c(c1)CCCc1c-2nc2ccccc2c1N` for me?
Result: false

Query: Can you look up the reported call for CN1CCCC(C(=O)OCC(=O)C2(O)CCC3C4CCC5=CC(=O)CCC5(C)C4C(O)CC32C)C1 (stereo not given) for me?
Result: false
